Each record here notes measured IC50.
Target: recombinant full length HPK-1 enzyme (Homo sapiens (Human), UniProt Q92918)
Sequence (Q92918 whole entry, species assumed): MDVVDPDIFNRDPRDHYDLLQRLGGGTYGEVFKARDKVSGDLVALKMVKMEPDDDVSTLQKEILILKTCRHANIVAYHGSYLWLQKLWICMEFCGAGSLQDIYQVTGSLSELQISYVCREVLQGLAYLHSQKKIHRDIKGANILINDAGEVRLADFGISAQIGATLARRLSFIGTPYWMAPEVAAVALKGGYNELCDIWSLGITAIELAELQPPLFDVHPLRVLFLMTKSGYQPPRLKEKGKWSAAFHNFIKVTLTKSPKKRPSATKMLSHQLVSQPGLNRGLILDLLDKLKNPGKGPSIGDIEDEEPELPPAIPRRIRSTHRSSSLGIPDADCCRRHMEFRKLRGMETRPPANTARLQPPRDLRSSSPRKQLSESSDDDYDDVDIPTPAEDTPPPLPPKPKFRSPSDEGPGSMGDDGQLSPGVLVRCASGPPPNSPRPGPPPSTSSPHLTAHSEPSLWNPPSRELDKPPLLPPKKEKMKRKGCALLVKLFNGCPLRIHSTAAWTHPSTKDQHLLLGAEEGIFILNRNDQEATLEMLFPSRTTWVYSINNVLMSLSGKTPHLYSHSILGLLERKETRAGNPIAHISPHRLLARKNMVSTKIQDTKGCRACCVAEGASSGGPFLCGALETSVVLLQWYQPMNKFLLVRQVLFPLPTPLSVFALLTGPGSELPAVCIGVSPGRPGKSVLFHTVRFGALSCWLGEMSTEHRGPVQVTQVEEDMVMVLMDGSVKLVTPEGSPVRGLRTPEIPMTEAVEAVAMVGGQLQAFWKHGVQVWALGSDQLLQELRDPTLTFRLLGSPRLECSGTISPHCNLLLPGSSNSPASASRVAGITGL
Experiment: HPK-1 biochemical enzyme assay (ADP-Glo kinase inhibition)
Details: recombinant full length HPK-1 6.8 nM, 10 μM ATP, 12.5 μM MBP, 30 mins at 25° C.

> print(dat)
                                   compound   test.result
1  CCC1CNc2c(ncc(Nc3cc[nH]c(=O)c3C(=O)Nc3ccc(N4CCN(C)CC4)cc3)c2C)O1 (stereo not drawn)  10 to 100 nM
2  Cc1c(Nc2cc[nH]c(=O)c2C(=O)Nc2ccc(N3CCN(C(=O)C(C)(C)F)CC3)cc2)cnc2c1NCCO2       ≤ 10 nM
3  Cc1c(Nc2cc[nH]c(=O)c2C(=O)Nc2ccc(N3CCN(C)CC3)c(N(C)C)c2)cnc2c1NCCO2  10 to 100 nM
4  Cc1c(Nc2cc[nH]c(=O)c2C(=O)Nc2ccc(N3CCN(c4nccs4)CC3)cc2)cnc2c1NCCO2  10 to 100 nM
5  Cc1c(Nc2cc[nH]c(=O)c2C(=O)Nc2ccc(N3CCN4C(=O)CC[C@H]4C3)cc2)cnc2c1NCCO2  10 to 100 nM
6  Cc1c(Nc2cc[nH]c(=O)c2C(=O)Nc2ccc3[nH]ncc3c2)cnc2c1NCCO2  10 to 100 nM

Query string: Checklist item: IC50 tested on recombinant full length HPK-1 enzyme (Homo sapiens (Human), UniProt Q92918), entry Cc1c(Nc2cc[nH]c(=O)c2C(=O)Nc2ccc3c(c2)OCO3)cnc2c1NCCO2 , value?
Result string: 10 to 100 nM

Query string: Try Cc1c(Nc2cc[nH]c(=O)c2C(=O)Nc2ccc(N3CCN(c4cnn(C)c4)CC3)cc2)cnc2c1NCCO2 next.
Result string: 10 to 100 nM

Query string: Another compound to look at: Cc1c(Nc2cc[nH]c(=O)c2C(=O)Nc2ccc(N3CCCC(C(C)(C)O)C3)cc2)cnc2c1NCCO2 (stereo not drawn)
Result string: ≤ 10 nM

Query string: Next: COCCN1CCN(c2ccc(NC(=O)c3c(Nc4cnc5c(c4C)NCC(C)(C)O5)cc[nH]c3=O)cc2)CC1
Result string: 10 to 100 nM

Query string: Can you check Cc1c(Nc2cc[nH]c(=O)c2C(=O)Nc2ccc(-c3cc[nH]n3)cc2)cnc2c1NCCO2 next?
Result string: 10 to 100 nM

Query string: What about Cc1c(Nc2cc[nH]c(=O)c2C(=O)Nc2ccc(N3CCN4CCOC[C@@H]4C3)cc2)cnc2c1NCCO2 ?
Result string: ≤ 10 nM

Query string: Input Cc1c(Nc2cc[nH]c(=O)c2C(=O)Nc2ccc(N3CCN(C)CC3)c(Br)c2)cnc2c1NCCO2
Result string: ≤ 10 nM

Query string: Again, but for Cc1c(Nc2cc[nH]c(=O)c2C(=O)Nc2ccc(N3CCC(N)CC3)cc2)cnc2c1NCCO2
Result string: ≤ 10 nM

Query string: Subsequent entry: Cc1c(Nc2cc[nH]c(=O)c2C(=O)Nc2ccc(C3CC(=O)N(C)C3)cc2)cnc2c1NCCO2 (stereo not drawn)
Result string: ≤ 10 nM

* * *

Biological target: recombinant full length HPK-1 enzyme (Homo sapiens (Human))
Assay: HPK-1 biochemical enzyme assay (ADP-Glo kinase inhibition)
Conditions: recombinant full length HPK-1 6.8 nM, 10 μM ATP, 12.5 μM MBP, 30 mins at 25° C.
quantity_measured: IC50

// worked examples, IC50 included
> print(dat)
                                   compound  quantity.measured   test.result
1  Cc1c(Nc2cc[nH]c(=O)c2C(=O)Nc2ccc(N3CCN(CCF)CC3)c(F)c2)cnc2c1NCCO2               IC50  10 to 100 nM
2  Cc1c(Nc2cc[nH]c(=O)c2C(=O)Nc2ccc(C3CCOCC3)cc2)cnc2c1NCCO2               IC50  10 to 100 nM
3  Cc1c(Nc2cc[nH]c(=O)c2C(=O)Nc2ccc(N3CCN(C(=O)C4CCCC4)CC3)cc2)cnc2c1NCCO2               IC50       ≤ 10 nM
4  COCCN(C)C(=O)N1CCN(c2ccc(NC(=O)c3c(Nc4cnc5c(c4C)NCCO5)cc[nH]c3=O)cc2)CC1               IC50       ≤ 10 nM
5  Cc1c(Nc2cc[nH]c(=O)c2C(=O)Nc2ccc(N3CCC(F)(F)CC3)cc2)cnc2c1NCCO2               IC50  10 to 100 nM
6  Cc1c(Nc2cc[nH]c(=O)c2C(=O)Nc2ccc3c(c2)OCC2CN(C)CCN32)cnc2c1NCCO2 (stereo not shown)               IC50       ≤ 10 nM

Now for another entry.
Query string: What IC50 value was documented for this compound, Cc1c(Nc2cc[nH]c(=O)c2C(=O)Nc2ccc3c(c2)CCC(=O)N3C)cnc2c1NCCO2 ?
Result string: 10 to 100 nM

Source of measurements: patent US20250282794A1
